Data credit: patent US5312919A

test_protocol: Cytotoxicity on normal human peripheral blood mononuclear cells (trypan blue dye exclusion)
Assay type: cell-based
settings: human, peripheral blood mononuclear cells, 1.56 μg/ml; overnight, 37° C.; read-out: % cell kill (mean ± S.E.M.)
I'd be grateful if you could share measured cytotoxicity for these entries.
API: value field is a number in %; no unit string.

Query (compound): `CCCCN1C(=O)C(=O)N(CCCC)C1=S` ; field requested: cytotoxicity
4.33

Query (compound): `CCCCN1C(=O)C(O)(OC)C(=O)N(CCCC)C1=S` ; field requested: cytotoxicity
5

----------
I'd be grateful if you could share measured cytotoxicity for these entries.
test_protocol: Cytotoxicity on normal human peripheral blood mononuclear cells (trypan blue dye exclusion)
Type: cell-based
settings: human, peripheral blood mononuclear cells, 6.25 μg/ml; overnight, 37° C.; read-out: % cell kill (mean ± S.E.M.)
API: value field is a number in %; no unit string.

Query (compound): `CCCCN1C(=O)C(=O)N(CCCC)C1=S` ; field requested: cytotoxicity
5.33

Query (compound): `CCCCN1C(=O)C(O)(OC)C(=O)N(CCCC)C1=S` ; field requested: cytotoxicity
6

----------
test_protocol: Cytotoxicity on normal human peripheral blood mononuclear cells (trypan blue dye exclusion)
Assay type: cell-based
settings: human, peripheral blood mononuclear cells, 0.78 μg/ml; overnight, 37° C.; read-out: % cell kill (mean ± S.E.M.)
outcome_measure: cytotoxicity (%)
API: value field is a number in %; no unit string.

Query (molecule): `CCCCN1C(=O)C(O)(OC)C(=O)N(CCCC)C1=S` ; field requested: cytotoxicity
2.67

----------
test_protocol: Cytotoxicity on normal human peripheral blood mononuclear cells (trypan blue dye exclusion)
Format: cell-based
settings: human, peripheral blood mononuclear cells, 3.13 μg/ml; overnight, 37° C.; read-out: % cell kill (mean ± S.E.M.)
outcome_measure: cytotoxicity

Query (compound): `CCCCN1C(=O)C(O)(OC)C(=O)N(CCCC)C1=S` ; field requested: cytotoxicity
4%

Query (compound): `CCCCN1C(=O)C(=O)N(CCCC)C1=S` ; field requested: cytotoxicity
3.67%

----------
test_protocol: Cytotoxicity on normal human peripheral blood mononuclear cells (trypan blue dye exclusion)
Type: cell-based
settings: human, peripheral blood mononuclear cells, 25.0 μg/ml; overnight, 37° C.; read-out: % cell kill (mean ± S.E.M.)
outcome_measure: cytotoxicity
Respond with the figure and its unit, in that order.

Query (compound): `CCCCN1C(=O)C(=O)N(CCCC)C1=S` ; field requested: cytotoxicity
25.7%
